- target system: Neuraminidase (Influenza A virus (strain A/Puerto Rico/8/1934 H1N1))
- Sequence (P03468 whole entry): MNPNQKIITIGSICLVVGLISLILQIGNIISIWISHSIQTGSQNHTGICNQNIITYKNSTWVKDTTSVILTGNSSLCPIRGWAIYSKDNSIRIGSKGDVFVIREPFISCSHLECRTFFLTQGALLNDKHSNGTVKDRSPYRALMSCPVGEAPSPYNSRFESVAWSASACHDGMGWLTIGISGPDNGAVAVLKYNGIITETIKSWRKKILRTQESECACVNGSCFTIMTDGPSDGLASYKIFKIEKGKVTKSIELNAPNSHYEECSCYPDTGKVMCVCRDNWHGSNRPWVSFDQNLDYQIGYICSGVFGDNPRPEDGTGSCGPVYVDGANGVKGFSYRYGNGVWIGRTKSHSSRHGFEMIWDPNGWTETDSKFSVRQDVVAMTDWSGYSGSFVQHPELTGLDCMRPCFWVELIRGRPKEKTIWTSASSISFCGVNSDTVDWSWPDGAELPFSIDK
- assay: Inhibition of influenza A sialidase in vitro.
Below: a set of entries, each annotated with reported IC50.
Your answer should be a plain number; it is taken to be in nM.

> print(dat)
                                        smi  readout.kind  reported.result
1  [C][C][C][C][C]O[C@H]([C][C])[C@@H]1OC(C([O])=O)=[C][C@H](N=C([N])[N])[C@H]1[N]C([C])=O          IC50             18.8

Here's the next entry for you.
Input line: Jot down IC50 (Neuraminidase (Influenza A virus (strain A/Puerto Rico/8/1934 H1N1))) of [C]C(=O)[N][C][C]O[C@@H]([C@@H]1OC(C([O])=O)=[C][C@H](N=C([N])[N])[C@H]1[N]C([C])=O)[C@H]([O])[C][O] .
Output line: 18.4
